Experiment: clinical
Settings: human, plasma, oral
experimental.endpoint: AUC(0-t)

[[record]]
compound = "CC(C)c1nc(CN(C)C(=O)N[C@@H](CCN2CCOCC2)C(=O)N[C@H](CC[C@H](Cc2ccccc2)NC(=O)OCc2cncs2)Cc2ccccc2)cs1 [COBI, cobicistat]"
test_result = "6760 ng·h/mL"


----------
Experiment: clinical
Settings: human, in vivo
experimental.endpoint: AUC(0-t)

[[record]]
compound = "CC(C)OC(=O)[C@H](C)N[P@](=O)(CO[C@H](C)Cn1cnc2c(N)ncnc21)Oc1ccccc1 [TAF, tenofovir alafenamide]"
experimental_endpoint = "AUC(0-t)"
test_result = "132 ng·h/mL"

[[record]]
compound = "Nc1nc(=O)n([C@@H]2CS[C@H](CO)O2)cc1F"
experimental_endpoint = "AUC(0-t)"
test_result = "11700 ng·h/mL"

